Test system: MRC5 cells
Assay: in vitro
Format: cell-based
Conditions: human, mrc5 cells, 24 h
Hi there, I'd appreciate the recorded CC50 for every entry that follows.

Prompt: Recorded CC50 of CCOC(=O)c1ccc(OCCC2CCN(c3ccc(C)nn3)CC2)cc1 [Pirodavir, reference compound] , please.
Response: > 100 µM

Prompt: Recorded CC50 of Cc1cc(CCCCCOc2c(Cl)cc(C3=NCCO3)cc2Cl)on1 [WIN 54954, reference compound] , please.
Response: > 100 µM

====

Target: Rhinovirus 3C protease (RVP) serotype 2 (Human rhinovirus 2)
Construct: Recombinant Rhinovirus 3C proteases from serotypes 14, 16, 2 or 89 were prepared; made in house
Sequence (P04936 1508-1690): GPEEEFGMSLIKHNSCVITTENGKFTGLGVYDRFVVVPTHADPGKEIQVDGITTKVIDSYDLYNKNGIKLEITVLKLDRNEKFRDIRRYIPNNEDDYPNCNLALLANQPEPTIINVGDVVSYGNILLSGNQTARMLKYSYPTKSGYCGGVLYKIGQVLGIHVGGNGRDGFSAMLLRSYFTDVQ
Test: Inhibition of Rhinovirus Protease, serotype 2 (FRET assay)
Format: biochemical
Conditions: enzyme start experiments, read-out: kobs/I
Value Type: kinact/KI
Please answer in the form of a number followed by its unit of measurement.

Prompt: Request body: readout kinact/KI, system Rhinovirus 3C protease (RVP) serotype 2 (Human rhinovirus 2), query CCOC(=O)/C=C/[C@H](CCC(N)=O)NC(=O)[C@H](Cc1ccccc1)N(C)C(=O)[C@H](CC(C)C)NC(=O)SCc1ccccc1 . Return the value.
Response: 3500 M⁻¹ s⁻¹

Prompt: Request body: readout kinact/KI, system Rhinovirus 3C protease (RVP) serotype 2 (Human rhinovirus 2), query CCOC(=O)/C=C/[C@H](CCC(N)=O)NC(=O)[C@H](Cc1ccc(OC)cc1)N(C)C(=O)[C@H](CC(C)C)NC(=O)OCc1ccccc1 . Return the value.
Response: 292 M⁻¹ s⁻¹

Prompt: Request body: readout kinact/KI, system Rhinovirus 3C protease (RVP) serotype 2 (Human rhinovirus 2), query CCOC(=O)/C=C/[C@H](CCC(N)=O)NC(=O)[C@H](Cc1ccccc1)N(C)C(=O)[C@H](CC(C)C)NC(=O)OCc1ccccc1 . Return the value.
Response: 617 M⁻¹ s⁻¹

Prompt: Request body: readout kinact/KI, system Rhinovirus 3C protease (RVP) serotype 2 (Human rhinovirus 2), query CCOC(=O)/C=C/[C@H](CCC(N)=O)NC(=O)[C@H](Cc1ccccc1)N(C)C(=O)[C@@H](NC(=O)SCC)C(C)C . Return the value.
Response: 940 M⁻¹ s⁻¹

Prompt: Request body: readout kinact/KI, system Rhinovirus 3C protease (RVP) serotype 2 (Human rhinovirus 2), query CCOC(=O)/C(C)=C/[C@H](CCC(N)=O)NC(=O)[C@H](Cc1ccc(C)cc1)N(C)C(=O)[C@H](CCc1ccccc1)NC(=O)SCc1ccccc1 . Return the value.
Response: 800 M⁻¹ s⁻¹

Prompt: Request body: readout kinact/KI, system Rhinovirus 3C protease (RVP) serotype 2 (Human rhinovirus 2), query CCOC(=O)/C=C/[C@H](CCC(N)=O)NC(=O)[C@@H]1CCCN1C(=O)[C@H](CC(C)C)NC(=O)SCC . Return the value.
Response: 7100 M⁻¹ s⁻¹

Prompt: Request body: readout kinact/KI, system Rhinovirus 3C protease (RVP) serotype 2 (Human rhinovirus 2), query CCOC(=O)/C=C/[C@H](CCC(N)=O)NC(=O)[C@@H]1CCCCN1C(=O)[C@H](CC(C)C)NC(=O)OCc1ccccc1 . Return the value.
Response: 1280 M⁻¹ s⁻¹

Prompt: Request body: readout kinact/KI, system Rhinovirus 3C protease (RVP) serotype 2 (Human rhinovirus 2), query CCOC(=O)/C=C/[C@H](CCC(N)=O)NC(=O)[C@H](Cc1ccc(OC)cc1)N(C)C(=O)[C@H](CC(C)C)NC(=O)SCC . Return the value.
Response: 541 M⁻¹ s⁻¹

Prompt: Request body: readout kinact/KI, system Rhinovirus 3C protease (RVP) serotype 2 (Human rhinovirus 2), query CCOC(=O)/C=C/[C@H](CCC(N)=O)NC(=O)C1CNCCN1C(=O)[C@H](CC(C)C)NC(=O)OCc1ccccc1 (mixture of isomers) . Return the value.
Response: 87 M⁻¹ s⁻¹

Prompt: Request body: readout kinact/KI, system Rhinovirus 3C protease (RVP) serotype 2 (Human rhinovirus 2), query CCOC(=O)/C=C/[C@H](CCC(N)=O)NC(=O)[C@H](Cc1ccccc1)N(C)C(=O)[C@@H](NC(=O)SC1CCCC1)C(C)C . Return the value.
Response: 1600 M⁻¹ s⁻¹

Prompt: Request body: readout kinact/KI, system Rhinovirus 3C protease (RVP) serotype 2 (Human rhinovirus 2), query CCOC(=O)/C(C)=C/[C@H](CCC(N)=O)NC(=O)[C@H](Cc1ccccc1)N(C)C(=O)[C@H](CC(C)C)NC(=O)SCc1ccccc1 . Return the value.
Response: 600 M⁻¹ s⁻¹

Prompt: Request body: readout kinact/KI, system Rhinovirus 3C protease (RVP) serotype 2 (Human rhinovirus 2), query CCSC(=O)N[C@@H](CC(C)C)C(=O)N(C)[C@@H](Cc1ccccc1)C(=O)N[C@H](/C=C/C(=O)N(C)OC)CCC(N)=O . Return the value.
Response: 400 M⁻¹ s⁻¹

Prompt: Request body: readout kinact/KI, system Rhinovirus 3C protease (RVP) serotype 2 (Human rhinovirus 2), query CCOC(=O)/C=C/[C@H](CCC(N)=O)NC(=O)[C@H](Cc1ccc(C)cc1)N(C)C(=O)[C@H](CCc1ccccc1)NC(=O)SCc1ccccc1 . Return the value.
Response: 3980 M⁻¹ s⁻¹

Prompt: Request body: readout kinact/KI, system Rhinovirus 3C protease (RVP) serotype 2 (Human rhinovirus 2), query CCOC(=O)/C=C/[C@H](CCC(N)=O)NC(=O)[C@@H]1CCc2ncc(NC(=O)OCc3ccccc3)c(=O)n21 . Return the value.
Response: 2500 M⁻¹ s⁻¹

====

Test: in vitro
Assay type: cell-based
Settings: human, hi-hela cells
Value Type: CC50 at 24 h

Prompt: Recorded CC50 at 24 h of CCOC(=O)/C=C/[C@H](CCC(N)=O)NC(=O)[C@H](Cc1ccc(OC)cc1)N(C)C(=O)[C@H](CC(C)C)NC(=O)SCC , please.
Response: 200 µM

Prompt: Recorded CC50 at 24 h of Cc1cc(CCCCCOc2c(Cl)cc(C3=NCCO3)cc2Cl)on1 [WIN 54954, reference compound] , please.
Response: > 100 µM

Prompt: Recorded CC50 at 24 h of CCOC(=O)c1ccc(OCCC2CCN(c3ccc(C)nn3)CC2)cc1 [Pirodavir, reference compound] , please.
Response: > 100 µM

Prompt: Recorded CC50 at 24 h of CCOC(=O)/C=C/[C@H](CCC(N)=O)NC(=O)[C@H](Cc1ccccc1)N(C)C(=O)[C@H](CC(C)C)NC(=O)OCc1ccccc1 , please.
Response: 56 µM

====

Assay: in vitro
Format: cell-based
Details: human, mrc5 cells
Value Type: CC50 at 24 h (µM)
Could you give me the number in µM? Just the number is fine.

Prompt: Recorded CC50 at 24 h of CCOC(=O)/C=C/[C@H](CCC(N)=O)NC(=O)[C@H](Cc1ccccc1)N(C)C(=O)[C@H](CC(C)C)NC(=O)OCc1ccccc1 , please.
Response: 56

Prompt: Recorded CC50 at 24 h of CCOC(=O)/C=C/[C@H](CCC(N)=O)NC(=O)[C@H](Cc1ccc(OC)cc1)N(C)C(=O)[C@H](CC(C)C)NC(=O)SCC , please.
Response: 200

====

Biological target: Rhinovirus 3C protease (RVP) serotype-14 (Human rhinovirus 14)
Construct: Recombinant Rhinovirus 3C proteases from serotypes 14, 16, 2 or 89 were prepared; made in house
Sequence (P03303 1538-1719): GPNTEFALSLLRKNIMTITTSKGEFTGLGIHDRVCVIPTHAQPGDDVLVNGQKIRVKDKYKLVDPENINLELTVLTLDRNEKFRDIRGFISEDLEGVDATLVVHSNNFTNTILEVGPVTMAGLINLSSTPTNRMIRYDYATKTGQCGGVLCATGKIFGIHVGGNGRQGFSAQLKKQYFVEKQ
Assay: Inhibition of Rhinovirus Protease, serotype 14 (FRET assay)
Type: biochemical
Details: read-out: kobs/I
Outcome label depends on kinact/KI relative to 10000 M⁻¹ s⁻¹: at/above gives y, below gives n.

Prompt: Test whether the compound CC(C)C[C@H](NC(=O)SC1CCCC1)C(=O)N(C)[C@@H](Cc1ccccc1)C(=O)N[C@H](/C=C1\CCOC1=O)CCC(N)=O records kinact/KI of 10000 M⁻¹ s⁻¹ or higher.
Response: n

Prompt: Test whether the compound CCOC(=O)/C=C/[C@H](CCC(N)=O)NC(=O)[C@H](Cc1ccccc1)N(C)C(=O)[C@@H](NC(=O)SCC)C(C)C records kinact/KI of 10000 M⁻¹ s⁻¹ or higher.
Response: y

Prompt: Test whether the compound CCOC(=O)/C(C)=C/[C@H](CCC(N)=O)NC(=O)[C@H](Cc1ccccc1)N(C)C(=O)[C@H](CC(C)C)NC(=O)SCc1ccccc1 records kinact/KI of 10000 M⁻¹ s⁻¹ or higher.
Response: n

Prompt: Test whether the compound CCOC(=O)/C=C/[C@H](CCC(N)=O)NC(=O)[C@H](Cc1ccccc1)N(C)C(=O)[C@H](CC(C)C)NC(=O)SCC records kinact/KI of 10000 M⁻¹ s⁻¹ or higher.
Response: y

Prompt: Test whether the compound CCOC(=O)/C=C/C(CCC(N)=O)NC(=O)[C@@H]1CCc2ncc(NC(=O)SCC)c(=O)n21 (stereo partly shown) records kinact/KI of 10000 M⁻¹ s⁻¹ or higher.
Response: y

Prompt: Test whether the compound CCOC(=O)/C=C/[C@H](CCC(N)=O)NC(=O)[C@H](Cc1ccccc1)N(C)C(=O)[C@@H](NC(=O)SC1CCCC1)C(C)C records kinact/KI of 10000 M⁻¹ s⁻¹ or higher.
Response: y

Prompt: Test whether the compound CCOC(=O)/C=C/[C@H](CCC(N)=O)NC(=O)Cn1c(-c2ccccc2)ncc(N)c1=O records kinact/KI of 10000 M⁻¹ s⁻¹ or higher.
Response: n

FYI, the data here is from patent US5962487A.
